Reported values of pIC50 for individual entries
Biological target: human kinase Mps-1 (Homo sapiens, UniProt P33981)
Construct: N-terminally GST-tagged human full length recombinant Mps-1 kinase; GST (N)
Sequence (P33981 1-857): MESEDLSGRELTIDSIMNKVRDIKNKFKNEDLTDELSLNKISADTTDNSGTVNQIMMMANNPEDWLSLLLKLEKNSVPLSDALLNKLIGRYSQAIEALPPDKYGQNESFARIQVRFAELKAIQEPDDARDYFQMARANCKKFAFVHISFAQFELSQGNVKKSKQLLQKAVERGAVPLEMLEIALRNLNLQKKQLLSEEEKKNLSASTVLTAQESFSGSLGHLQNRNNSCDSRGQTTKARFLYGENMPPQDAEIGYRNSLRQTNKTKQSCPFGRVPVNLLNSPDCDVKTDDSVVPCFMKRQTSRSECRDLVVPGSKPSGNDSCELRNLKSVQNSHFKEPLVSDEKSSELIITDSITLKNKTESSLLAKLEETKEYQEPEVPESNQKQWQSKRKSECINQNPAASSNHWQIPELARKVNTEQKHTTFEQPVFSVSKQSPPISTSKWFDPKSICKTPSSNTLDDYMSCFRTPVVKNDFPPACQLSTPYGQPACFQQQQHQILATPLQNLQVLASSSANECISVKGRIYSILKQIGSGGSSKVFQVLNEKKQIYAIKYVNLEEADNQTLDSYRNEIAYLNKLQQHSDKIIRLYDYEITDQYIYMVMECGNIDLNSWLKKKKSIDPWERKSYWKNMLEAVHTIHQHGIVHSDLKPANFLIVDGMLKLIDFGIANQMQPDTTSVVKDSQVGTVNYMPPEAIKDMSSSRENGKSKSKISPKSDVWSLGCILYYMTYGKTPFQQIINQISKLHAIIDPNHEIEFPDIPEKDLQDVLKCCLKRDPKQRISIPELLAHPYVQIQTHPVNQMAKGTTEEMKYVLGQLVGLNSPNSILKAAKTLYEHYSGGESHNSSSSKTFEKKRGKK
Assay: Mps-1 kinase assay (TR-FRET)
Conditions: N-terminally GST-tagged human full length recombinant Mps-1; 10 μM ATP; 1 μM peptide substrate; 15 min pre-incubation; 60 min at 22° C.
pIC50: −log10 of the molar value.
Parameter: pIC50

- Cn1ccc(CNc2nc(-c3ccccc3)cn3c(-c4ccc(C(=O)NC5CC5)cc4)cnc23)n1: 8.25
- O=C(NC1CC1)c1ccc(-c2cnc3c(NCCc4ccccn4)nc(-c4ccccc4)cn23)cc1: 7.99
- CC(C)CNc1nc(-c2ccc(C(=O)N(C)C)cc2)cn2c(-c3ccc(C(=O)NC4CC4)cc3)cnc12: 8.57
- COCCCNc1nc(-c2ccccc2)cn2c(-c3ccc(C(=O)NC4CC4)cc3)cnc12: 8.46
- NS(=O)(=O)c1ccc(CNc2nc(-c3ccccc3)cn3c(-c4ccc(C(=O)NC5CC5)cc4)cnc23)cc1: 8.25
- Cc1cc(-c2cnc3c(NCC4CCCO4)nc(-c4ccc(F)cc4)cn23)ccc1C(=O)NC1CC1 (stereo not drawn): 8.04
- CC(C)CNc1nc(-c2cccc(C#N)c2)cn2c(-c3ccc(C(=O)NC4CC4)cc3)cnc12: 8.34
- CC(C)CNc1nc(-c2ccc(OC(C)C)cc2)cn2c(-c3ccc(C(=O)NC4CC4)cc3)cnc12: 7.57
- CC(C)CNc1nc(-c2cccc(NS(C)(=O)=O)c2)cn2c(-c3ccc(C(=O)NC4CC4)cc3)cnc12: 8.74
- CC(C)CNc1nc(-c2ccc(Cl)c(Cl)c2)cn2c(-c3ccc(C(=O)NC4CC4)cc3)cnc12: 7.65
- C[S+]([O-])CCNc1nc(-c2ccccc2)cn2c(-c3ccc(C(=O)NC4CC4)cc3)cnc12 (stereo not drawn): 8.47
- Cc1cc(-c2cnc3c(NCCCC(C)O)nc(-c4ccc(F)cc4)cn23)ccc1C(=O)NC1CC1 (stereo not drawn): 8.15
- CC(C)CNc1nc(-c2ccc(Cl)c(C(=O)NC3CC3)c2)cn2c(-c3ccc(C(=O)NC4CC4)cc3)cnc12: 8.35
- CC(C)CNc1nc(-c2cc(Cl)cc(Cl)c2)cn2c(-c3ccc(C(=O)NC4CC4)cc3)cnc12: 5.95
- O=C(NC1CC1)c1ccc(-c2cnc3c(NCCCN4CCCC4)nc(-c4ccccc4)cn23)cc1: 7.55
